Source listed as patent EP4745135A1.

target: human Cereblon WT GST-tagged protein (Homo sapiens, UniProt Q96SW2); construct: purchased CISBIO 64BDCRBNPEH; experiment: CRBN-binding affinity, HTRF (CEREBLON BINDING kit); conditions: read-out: Inhibition Rate at 0.5 µM (%)
Sequence (Q96SW2 whole entry): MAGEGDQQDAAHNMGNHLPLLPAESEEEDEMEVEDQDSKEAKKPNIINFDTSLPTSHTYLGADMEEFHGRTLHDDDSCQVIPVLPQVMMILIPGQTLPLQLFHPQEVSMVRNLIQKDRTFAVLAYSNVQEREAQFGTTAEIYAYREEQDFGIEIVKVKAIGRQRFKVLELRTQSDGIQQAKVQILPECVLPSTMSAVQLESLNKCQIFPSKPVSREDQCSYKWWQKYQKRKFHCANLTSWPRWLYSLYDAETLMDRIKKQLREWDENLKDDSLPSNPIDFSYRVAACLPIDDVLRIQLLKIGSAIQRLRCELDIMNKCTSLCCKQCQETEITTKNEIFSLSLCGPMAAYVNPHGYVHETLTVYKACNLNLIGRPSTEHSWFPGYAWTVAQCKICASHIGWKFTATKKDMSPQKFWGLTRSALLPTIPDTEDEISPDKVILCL
attribute.measured: inhibition at 0.5 µM

What inhibition at 0.5 µM value was documented for this compound, O=C1CCC(N2Cc3cc(CN4CCN(c5nccc(Cl)c5Br)CC4)ccc3C2=S)C(=O)N1 (stereo not shown) ?
60 to 80%

What inhibition at 0.5 µM value was documented for this compound, O=C1CCC(N2Cc3cc(CN4CCC(c5noc6ccccc56)CC4)ccc3C2=S)C(=O)N1 (stereo not shown) ?
60 to 80%

What inhibition at 0.5 µM value was documented for this compound, O=C1CCC(N2Cc3cc(CN4CCC(c5cccc(Br)c5)CC4)ccc3C2=S)C(=O)N1 (stereo not shown) ?
40 to 53%

What inhibition at 0.5 µM value was documented for this compound, Cc1cc(N2CCN(Cc3ccc4c(c3)CN(C3CCC(=O)NC3=O)C4=S)CC2)cc(C)n1 (stereo not shown) ?
60 to 80%

What inhibition at 0.5 µM value was documented for this compound, O=C1CCC(N2Cc3c(CN4CCN(c5ccnc(Cl)c5Br)CC4)cccc3C2=S)C(=O)N1 (stereo not shown) ?
60 to 80%

What inhibition at 0.5 µM value was documented for this compound, O=C1CCC(N2Cc3cc(CN4CCN(c5ccc(Cl)cn5)CC4)ccc3C2=S)C(=O)N1 (stereo not shown) ?
60 to 80%

What inhibition at 0.5 µM value was documented for this compound, O=C1CCC(N2Cc3cc(CN4CCN(c5c(Cl)ccnc5Cl)CC4)ccc3C2=S)C(=O)N1 (stereo not shown) ?
60 to 80%

What inhibition at 0.5 µM value was documented for this compound, O=C1CCC(N2Cc3cc(CN4CCN(c5nccc(F)c5F)CC4)ccc3C2=S)C(=O)N1 (stereo not shown) ?
60 to 80%

What inhibition at 0.5 µM value was documented for this compound, O=C1CCC(N2Cc3c(CN4CCN(c5cc(Cl)ccc5Cl)CC4)cccc3C2=S)C(=O)N1 (stereo not shown) ?
30 to 40%

What inhibition at 0.5 µM value was documented for this compound, O=C1CCC(N2Cc3cc(CN4CCC(c5cccc6cnccc56)CC4)ccc3C2=S)C(=O)N1 (stereo not shown) ?
40 to 53%

What inhibition at 0.5 µM value was documented for this compound, O=C1CCC(N2Cc3cc(CN4CCC(c5ccccc5C(F)(F)F)CC4)ccc3C2=S)C(=O)N1 (stereo not shown) ?
40 to 53%

What inhibition at 0.5 µM value was documented for this compound, O=C1CCC(N2Cc3c(CN4CCC(c5ncnc6sc(-c7ccccc7)cc56)CC4)cccc3C2=S)C(=O)N1 (stereo not shown) ?
30 to 40%

What inhibition at 0.5 µM value was documented for this compound, O=C1CCC(N2Cc3c(CN4CCN(c5ccc(Cl)nc5)CC4)cccc3C2=S)C(=O)N1 (stereo not shown) ?
60 to 80%

What inhibition at 0.5 µM value was documented for this compound, O=C1CCC(N2Cc3cc(CN4C[C@H]5C[C@@H]4CN5C(c4ccccc4)c4ccccc4)ccc3C2=S)C(=O)N1 (stereo partly shown) ?
53 to 60%

What inhibition at 0.5 µM value was documented for this compound, O=C1CCC(N2Cc3cc(CN4CC=C(c5ccsc5)CC4)ccc3C2=S)C(=O)N1 (stereo not shown) ?
80 to 100%

What inhibition at 0.5 µM value was documented for this compound, O=C1CCC(N2Cc3c(CN4CC=C(c5ccnc(Cl)c5Cl)CC4)cccc3C2=S)C(=O)N1 (stereo not shown) ?
60 to 80%
